Cited source: patent US20060172941A1

Collected fraction number values appear next to each entry.
# MEASUREMENT_NOTES: Heparin binding activity, Hi Trap Heparin HP column, NaCl step elution
# PROTOCOL_CONDITIONS: 500 μl fractions of heparin column elution
# Protocol: Liquid chromatography was used to determine the relative levels of heparin binding activity of the individual heparin binding domains and of the anti-angiogenic miniproteins that contains them. […] Hi Trap Heparin HP column (1 ml, Amersham Biosciences) was equilibrated with 10 column volumes (CV) of equilibration (EQ) buffer=10 mM NaH2PO4 pH 7. […] The A210 nm was measured using EQ and elution buffers as blanks.
Where no end group is shown, it is not given here. [ ]: non-standard residue; d: D form.

- SEQUENCE_ENTRY: "RRGRARRGRARRGRARRGKK ([dR][dR]G[dR][dA][dR][dR]G[dR][dA][dR][dR]G[dR][dA][dR][dR]G[dK][dK]; listed as Homo sapiens) [ST100,085]"
  OBSERVED_PROPERTY: "fraction number"
  RECORDED_MEASUREMENT: "31-32"
- SEQUENCE_ENTRY: "RRGRAAKKKRRGRAAKKK (listed as Homo sapiens) [ST100,082]"
  OBSERVED_PROPERTY: "fraction number"
  RECORDED_MEASUREMENT: "26-27"
- SEQUENCE_ENTRY: "RKKAARARKKAARARKKAARRLGYVVSDGRGDYP (listed as Homo sapiens) [ST100,081]"
  OBSERVED_PROPERTY: "fraction number"
  RECORDED_MEASUREMENT: "26-27"

Now for another entry.
May I ask what fraction number has been recorded for RRGRAAKKKRRGRAAKKKPSQSSHPPLSTA (listed as Homo sapiens) [ST100,072] ?
26-27
